All figures here come from ChEMBL document CHEMBL5579826.

test: AUC (0 to infinity) in C57BL/6J mouse at 5 mg/kg, iv measured for 24 hrs by LC-MS/MS analysis; type: ADME, organism-based; settings: in vivo
quantity_measured: AUC(0-inf) (µg·h/mL)
Use µg·h/mL as the unit, but write only the number.

Sure, the documented AUC(0-inf) for `O=C(Nc1c2c(cc3c1CCC3)CCC2)NS(=O)(=O)c1ccc(OCCOCCOCCOCCN2C(=O)/C(=C/c3cc(Br)c(O)c(Br)c3)c3cc(I)ccc32)cc1` is 2.97

====

molecular target: Interleukin-1 beta (Homo sapiens) (UniProt P01584); assay: Inhibition of IL-1beta in PMA-differentiated human THP-1 cells at 100 nM co-incubated with compound and LPS for 24 hrs by ELISA relative to control; assay type: cell-based
Sequence (P01584 117-269 limits assumed): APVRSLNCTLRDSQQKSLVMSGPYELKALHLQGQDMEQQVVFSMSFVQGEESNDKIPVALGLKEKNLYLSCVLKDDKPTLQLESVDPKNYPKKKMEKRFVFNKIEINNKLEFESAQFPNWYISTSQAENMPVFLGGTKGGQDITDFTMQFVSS
Use 20% as the dividing line for inhibition, with the line itself on the true side and lower values as false.

Inquiry: Check this compound for inhibition at or above 20%: `O=C(Nc1c2c(cc3c1CCC3)CCC2)NS(=O)(=O)c1ccc(OCCCCCCCCN2C(=O)/C(=C/c3cc(Br)c(O)c(Br)c3)c3cc(I)ccc32)cc1`
Reply text: true

Inquiry: Check this compound for inhibition at or above 20%: `COc1ccc(Cl)cc1C(=O)NCCc1ccc(S(=O)(=O)NCCCCCCCCN2C(=O)/C(=C/c3cc(Br)c(O)c(OC)c3)c3cc(Br)ccc32)cc1`
Reply text: false

Inquiry: Check this compound for inhibition at or above 20%: `COc1cc(/C=C2/C(=O)N(CCOCCOc3ccc(S(=O)(=O)NC(=O)Nc4c5c(cc6c4CCC6)CCC5)cc3)c3ccc(Br)cc32)cc(Br)c1O`
Reply text: true

Inquiry: Check this compound for inhibition at or above 20%: `O=C(Nc1c2c(cc3c1CCC3)CCC2)NS(=O)(=O)c1ccc(OCCOCCOCCOCCN2C(=O)/C(=C/c3cc(Br)c(O)c(Br)c3)c3cc(Br)ccc32)cc1`
Reply text: false
